Molecular target: NMB receptor (Rattus norvegicus)
Sequence (P24053 whole entry): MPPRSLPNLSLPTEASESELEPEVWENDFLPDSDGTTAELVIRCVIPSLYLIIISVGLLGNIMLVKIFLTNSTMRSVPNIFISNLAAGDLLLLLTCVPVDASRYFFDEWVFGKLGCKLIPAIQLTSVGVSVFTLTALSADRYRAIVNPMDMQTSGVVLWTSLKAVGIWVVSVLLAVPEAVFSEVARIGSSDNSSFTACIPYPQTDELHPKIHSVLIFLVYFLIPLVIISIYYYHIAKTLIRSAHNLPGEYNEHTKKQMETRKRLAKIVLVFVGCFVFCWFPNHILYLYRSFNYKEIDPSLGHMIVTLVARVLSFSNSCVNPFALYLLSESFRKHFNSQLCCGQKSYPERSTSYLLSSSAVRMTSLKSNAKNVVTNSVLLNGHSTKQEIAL
Assay: [3H]inositol phosphates in NMB-R transfected cells (alone or NMB-stimulated)
Assay type: cell-based
Design: a full length NMB-preferring bombesin receptor clone generated from rat esophagus; expressed in transfected cells
Conditions: NMB-R transfected cells; analog 10 μM alone; control 13 ± 3
Where a SMILES comes first, the peptide text is derived from it. Bridges are numbered along the chain shown (N, C = ends). [ ]: non-standard residue; d: D form. 2Nal = N[C@@H](Cc1ccc2ccccc2c1)C(=O)O; d2Nal = N[C@H](Cc1ccc2ccccc2c1)C(=O)O
# if measured [3H]IP, analog Alone (10 μM) < 10 dym × 10^3: yes  # else: no

Would you please look over these solved cases?
CC(C)[C@@H]1NC(=O)[C@H](CCCCN)NC(=O)[C@@H](Cc2c[nH]c3ccccc23)NC(=O)[C@H](Cc2ccc(O)cc2)NC(=O)[C@@H](NC(=O)[C@H](N)Cc2ccccc2)CSSC[C@@H](C(=O)N[C@@H](Cc2ccc3ccccc3c2)C(N)=O)NC1=O [Analog #4] (H-[dF]CY[dW]KVC[2Nal]-NH2; disulfide 2-7) ... no
CC(C)[C@@H]1NC(=O)[C@H](Cc2c[nH]cn2)NC(=O)[C@@H](Cc2c[nH]c3ccccc23)NC(=O)[C@H](Cc2ccc(O)cc2)NC(=O)[C@@H](NC(=O)[C@H](N)Cc2ccc3ccccc3c2)CSSC[C@@H](C(=O)N[C@@H](Cc2ccc3ccccc3c2)C(N)=O)NC1=O [Analog #14] (H-[d2Nal]CY[dW]HVC[2Nal]-NH2; disulfide 2-7; N-terminus assumed) ... yes
C[C@@H](O)[C@H](NC(=O)[C@@H]1CSSC[C@H](NC(=O)[C@H](N)Cc2ccc3ccccc3c2)C(=O)N[C@@H](Cc2ccc(O)cc2)C(=O)N[C@H](Cc2c[nH]c3ccccc23)C(=O)N[C@@H](CCCCN)C(=O)N[C@@H]([C@@H](C)O)C(=O)N1)C(N)=O ... no
CC(C)[C@@H]1NC(=O)[C@H](CCCCN)NC(=O)[C@@H](Cc2c[nH]c3ccccc23)NC(=O)[C@H](Cc2ccc(O)cc2)NC(=O)[C@@H](NC(=O)[C@@H](N)Cc2ccc3ccccc3c2)CSSC[C@@H](C(=O)N[C@H](Cc2ccc3ccccc3c2)C(N)=O)NC1=O [Analog #9] (H-[2Nal]CY[dW]KVC[d2Nal]-NH2; disulfide 2-7) ... yes
C[C@@H](O)[C@H](NC(=O)[C@@H]1CSSC[C@H](NC(=O)[C@H](N)Cc2ccc3ccccc3c2)C(=O)N[C@@H](Cc2ccc(O)cc2)C(=O)N[C@H](Cc2c[nH]c3ccccc23)C(=O)N[C@@H](CCCCN)C(=O)N[C@@H](Cc2ccc3ccccc3c2)C(=O)N1)C(N)=O ... no

Q: Consider the compound CC(C)[C@@H]1NC(=O)[C@H](CCCCN)NC(=O)[C@@H](Cc2c[nH]c3ccccc23)NC(=O)[C@H](Cc2ccc(O)cc2)NC(=O)[C@@H](NC(=O)[C@H](N)Cc2ccc3ccccc3c2)CSSC[C@@H](C(=O)N[C@@H](Cc2ccc3ccccc3c2)C(N)=O)NC1=O [Analog #1] (H-[d2Nal]CY[dW]KVC[2Nal]-NH2; disulfide 2-7) . Is its [3H]IP, analog Alone (10 μM) strictly less than 10 dym × 10^3?
Result: no

Q: Consider the compound CC(C)[C@@H]1NC(=O)[C@H](CCCCN)NC(=O)[C@@H](Cc2c[nH]c3ccccc23)NC(=O)[C@H](Cc2ccc(O)cc2)NC(=O)[C@@H](NC(=O)[C@H](N)Cc2c[nH]c3ccccc23)CSSC[C@@H](C(=O)N[C@@H](Cc2ccc3ccccc3c2)C(N)=O)NC1=O [Analog #12] (H-[dW]CY[dW]KVC[2Nal]-NH2; disulfide 2-7) . Is its [3H]IP, analog Alone (10 μM) strictly less than 10 dym × 10^3?
Result: yes
